tested on: Candida albicans; assay: In vitro antifungal activity against Candida albicans CY1002 was determined at pH 7 for inoculum size of 1*10e4 cfu/ml by broth dilution method; format: functional
With a cut-off of 2 µg/mL, any IC80 strictly below it is called yes; any IC80 meeting it or above is called no.

compound	category
CCc1ccc(CC[C@@H]2CCC(C)(C)[C@H](OC)[C@H]2Cn2cncn2)cc1	yes
CCC(C)n1ncn(-c2ccc(N3CCN(c4ccc(OC[C@H]5CO[C@](Cn6cncn6)(c6ccc(Cl)cc6Cl)O5)cc4)CC3)cc2)c1=O (stereo not given in full) [ITRACONAZOLE]	yes
OC(Cn1cncn1)(Cn1cncn1)c1ccc(F)cc1F [FLUCONAZOLE]	no
CCc1ccc(CC[C@@H]2CCC(C)(C)[C@H](OC)[C@H]2Cn2ccnc2)cc1	yes
CCCCCCC/C=C/C[C@@H]1OC[C@H](C)[C@H](OC)[C@H]1COC(=O)CN	yes

====

# IC80 per record follows
tested on: Cryptococcus neoformans; assay: In vitro antifungal activity against Cryptococcus neoformans CY1057 was determined at pH 7 for inoculum size of 1*10e4 cfu/ml by broth dilution method; type: functional
valueType: IC80 (µg/mL)

> print(dat)
                                   compound               targetdesc  unitabbreviation  value
1        OC(Cn1cncn1)(Cn1cncn1)c1ccc(F)cc1F  Cryptococcus neoformans             µg/mL    3.8
2  CCCCCCC/C=C/C[C@@H]1OC[C@H](C)[C@H](OC)[C@H]1COC(=O)CN  Cryptococcus neoformans             µg/mL   2.19
3  CCc1ccc(CC[C@@H]2CCC(C)(C)[C@H](OC)[C@H]2Cn2ccnc2)cc1  Cryptococcus neoformans             µg/mL   0.12
4  CCC(C)n1ncn(-c2ccc(N3CCN(c4ccc(OC[C@H]5CO[C@](Cn6cncn6)(c6ccc(Cl)cc6Cl)O5)cc4)CC3)cc2)c1=O (stereo not given in full)  Cryptococcus neoformans             µg/mL  0.022
5  CCc1ccc(CC[C@@H]2CCC(C)(C)[C@H](OC)[C@H]2Cn2cncn2)cc1  Cryptococcus neoformans             µg/mL   0.82

====

system: Candida albicans; test: In vitro antifungal activity against Candida albicans CY1005 was determined at pH 7 for inoculum size of 1*10e4 cfu/ml by broth dilution method; type: functional
# IC80 per record follows
valueType: IC80 (µg/mL)

> print(dat)
                                   compound   value
1  CCc1ccc(CC[C@@H]2CCC(C)(C)[C@H](OC)[C@H]2Cn2ccnc2)cc1   0.012
2  CCCCCCC/C=C/C[C@@H]1OC[C@H](C)[C@H](OC)[C@H]1COC(=O)CN    1.58
3  CCc1ccc(CC[C@@H]2CCC(C)(C)[C@H](OC)[C@H]2Cn2cncn2)cc1   0.042
4  CCC(C)n1ncn(-c2ccc(N3CCN(c4ccc(OC[C@H]5CO[C@](Cn6cncn6)(c6ccc(Cl)cc6Cl)O5)cc4)CC3)cc2)c1=O (stereo not given in full)  0.0056
5        OC(Cn1cncn1)(Cn1cncn1)c1ccc(F)cc1F     2.8

====

tested on: Aspergillus fumigatus; assay: In vitro antifungal activity against Aspergillus fumigatus CF1003 was determined at pH 7 for inoculum size of 1*10e4 cfu/ml by broth dilution method; format: functional
# IC80 per record follows
valueType: IC80 (µg/mL)

> print(dat)
                                   compound  valuetype  unitabbreviation  rel  value
1  CCc1ccc(CC[C@@H]2CCC(C)(C)[C@H](OC)[C@H]2Cn2cncn2)cc1       IC80             µg/mL    >    200
2        OC(Cn1cncn1)(Cn1cncn1)c1ccc(F)cc1F       IC80             µg/mL    =    200
3  CCC(C)n1ncn(-c2ccc(N3CCN(c4ccc(OC[C@H]5CO[C@](Cn6cncn6)(c6ccc(Cl)cc6Cl)O5)cc4)CC3)cc2)c1=O (stereo not given in full)       IC80             µg/mL    =   0.02
4  CCCCCCC/C=C/C[C@@H]1OC[C@H](C)[C@H](OC)[C@H]1COC(=O)CN       IC80             µg/mL    =   0.73
5  CCc1ccc(CC[C@@H]2CCC(C)(C)[C@H](OC)[C@H]2Cn2ccnc2)cc1       IC80             µg/mL    =   0.37
